Origin of values: patent US7371741B2

For each of the compounds below, state its IC50.
Tested on: MDA-MB-231: breast cancer
PROTOCOL DETAILS: In vitro anti-proliferative activity, BrdU incorporation, MDA-MB-231
Format: cell-based
STATED CONDITIONS: MDA-MB-231 cells, 50% inhibition of proliferation, BrdU incorporation into DNA
Experimental: Determination of in vitro anti-proliferative activity of substituted estradiol analogs: In vitro anti-proliferative or anti-mitogenic activity was determined using a commercially available cell-based assay in 96-well tissue culture plates with assessment of proliferation by evaluating DNA synthesis through incorporation into DNA of immuno-reactive (BrdU) nucleotides. […]
Give bare numbers, in nM.

Take each entry in turn and give its IC50.
1. CC=C1CCC2C3CCc4cc(O)c(OC)cc4C3CCC12C (centres unmarked)
2. C=C1CC[C@H]2[C@@H]3CCc4cc(O)c(OC)cc4[C@H]3CC[C@]12C
3. COc1cc2c(cc1NC=O)CC[C@@H]1[C@@H]2CC[C@]2(C)C(O)CC[C@@H]12 (some centres unmarked)
4. C=C1CC[C@H]2[C@@H]3CCc4cc(OS(N)(=O)=O)c(OC)cc4[C@H]3CC[C@]12C

[2630, 580, 780, 560]

Required: IC50, one value per compound below.
1. C=C1CC[C@H]2[C@@H]3CCc4cc(NC=O)c(OC)cc4[C@H]3CC[C@]12C
2. CCOc1cc2c(cc1OS(N)(=O)=O)CC[C@@H]1[C@@H]2CC[C@]2(C)C(C)CC[C@@H]12 (some centres unmarked)
3. COc1cc2c(cc1NC=O)CC[C@@H]1[C@@H]2CC[C@]2(C)C(=O)CC[C@@H]12 [Compound 43A]
4. CC=C1CC[C@H]2[C@@H]3CCc4cc(OS(N)(=O)=O)c(OC)cc4[C@H]3CC[C@]12C

300
1550
1220
580

---

Give pIC50 for every item shown.
Tested on: MDA-MB-231: breast cancer
PROTOCOL DETAILS: In vitro anti-proliferative activity, BrdU incorporation, MDA-MB-231
Assay type: cell-based
STATED CONDITIONS: MDA-MB-231 cells, 50% inhibition of proliferation, BrdU incorporation into DNA
Numbers only, as −log10 of the molar value.

[
  {
    "COMPOUND": "CC=C1CC[C@H]2[C@@H]3CCc4cc(NC=O)c(OC)cc4[C@H]3CC[C@]12C",
    "pIC50": 6.25
  }
]

Hey, quick one: what's pIC50 for each of these?
1. COc1cc2c(cc1OS(N)(=O)=O)CC[C@@H]1[C@@H]2CC[C@]2(C)C(C)CC[C@@H]12 (stereo partly shown)
2. COc1cc2c(cc1NC=O)CC[C@@H]1[C@@H]2CC[C@]2(C)C(C)CC[C@@H]12 (stereo partly shown)

1. 6.18
2. 6.21

---

For each entry below, report its IC50 value.
Tested on: MDA-MB-231: breast cancer
PROTOCOL DETAILS: In vitro anti-proliferative activity, BrdU incorporation, MDA-MB-231
Format: cell-based
STATED CONDITIONS: MDA-MB-231 cells, 50% inhibition of proliferation, BrdU incorporation into DNA
Answers are plain numbers, in µM.

# count of solved cases: 4
[
  {
    "SUBSTANCE SMILES": "COc1cc2c(cc1C(N)=O)CC[C@@H]1[C@@H]2CC[C@]2(C)C(=O)CC[C@@H]12",
    "IC50 [µM]": 0.7
  },
  {
    "SUBSTANCE SMILES": "COc1cc2c(cc1OS(N)(=O)=O)CC[C@@H]1[C@@H]2CC[C@]2(C)CCC[C@@H]12",
    "IC50 [µM]": 0.38
  },
  {
    "SUBSTANCE SMILES": "COc1cc2c(cc1NC=O)CC[C@@H]1[C@@H]2CC[C@]2(C)CCC[C@@H]12",
    "IC50 [µM]": 8.29
  },
  {
    "SUBSTANCE SMILES": "COc1cc2c(cc1OS(N)(=O)=O)CC[C@@H]1[C@@H]2CC[C@]2(C)C(=O)CC[C@@H]12",
    "IC50 [µM]": 0.6
  }
]

Kindly note the recorded IC50 for `C=C1CC[C@H]2[C@@H]3CCc4cc(NC=O)c(OCC)cc4[C@H]3CC[C@]12C` , which is 2.41
